Tested on: mAb 9C12
procedure_text: Epitope mapping of monoclonal antibody 9C12 against cyclic peptides of the AdV hexon protein (peptide microarray)
Type: binding, mice
assay_context: cyclic 7mer, 10mer, 13mer peptides of AdV hexon
// boundary case: ranked binding signal obtained from the microarray (01 binds strongest) equal to 4 maps to n; strictly smaller maps to y

Please review the entries below; each comes with its answer.
DGHFHPSPLMGGFG (REGION 1..14: note = peptide derived from viral capsid protein) [SEQ ID NO: 1977]
n
TQYSTGQVSVEIEW (REGION 1..14: note = peptide derived from viral capsid protein) [SEQ ID NO: 1969]
y
TQGTQQLLFSQAGP [SEQ ID NO: 1974]
n

Please examine the following record next.
Ask: Consider DAEFQERLKEDTSF (REGION 1..14: note = peptide derived from viral capsid protein) [SEQ ID NO: 1975] . Does its ranked binding signal obtained from the microarray (01 binds strongest) lie strictly below 4?
Reply: n

---

Test system: polyclonal antibody ab6982
procedure_text: Epitope mapping of polyclonal antibody ab6982 against cyclic peptides of Ad5 fiber and hexon (peptide array)
Type: binding, rabbits
assay_context: cyclic peptides of hexon protein (clusters 8-16)
Categorized via antibody binding signal ranking from the microarray experiment: lower bin: < 40; middle bin: ≥ 40 and < 60; upper bin: ≥ 60

Please review the entries below; each comes with its answer.
272 (VVLYSEDVDIETP) [compound 272]
middle bin
310 (NIGYQGF) [compound 310]
upper bin

Ask: Class (by measured antibody binding signal ranking from the microarray experiment) for 238 (LEEEDDDNED) [compound 238]
Reply: lower bin

Ask: Try 230 (EDEVDEQAEQQKT) [compound 230] next.
Reply: lower bin

Ask: Try 253 (EEDDDNEDEV) [compound 253] next.
Reply: upper bin

---

What peptide number among the top 20 peptide hits of mAb Mac2-158 was measured for each of the following?
Tested on: mAb Mac2-158
procedure_text: Epitope mapping of mAb Mac2-158 with circular peptides of human CD163 SRCR domain 1
Type: binding
assay_context: circular peptides aligned to SRCR domain 1 of human CD163
Numbers only.

Study these solved cases before continuing.
QLKAGDNPYLRYNH (REGION 1..14: note = peptide derived from viral capsid protein) [SEQ ID NO: 1913]
13
365 (CSGRVEVKVQEEW) [compound 365]
07
GQTGDSESVPDPQP [SEQ ID NO: 1911]
08
PQYGYLTLNNGSQA (REGION 1..14: note = peptide derived from viral capsid protein) [SEQ ID NO: 1901]
14
SFITQYSTGQVSVE (REGION 1..14: note = peptide derived from viral capsid protein) [SEQ ID NO: 1914]
17

Give peptide number among the top 20 peptide hits of mAb Mac2-158 for each listed item.
1. LEDNLSEGIREWWD (REGION 1..14: note = peptide derived from viral capsid protein) [SEQ ID NO: 1898]
2. IFNIQVKEVTTSNG (REGION 1..14: note = peptide derived from viral capsid protein) [SEQ ID NO: 1907]
3. GETTRPATAAQTQV [SEQ ID NO: 1906]
4. FNIQVKEVTTNDGV (REGION 1..14: note = peptide derived from viral capsid protein) [SEQ ID NO: 1910]

Reply:
["04", "02", "01", "06"]

Give peptide number among the top 20 peptide hits of mAb Mac2-158 for each listed item.
1. LIKNTPVPADPPTT (REGION 1..14: note = peptide derived from viral capsid protein) [SEQ ID NO: 1900]
2. SNSQLIFAGPNPSG [SEQ ID NO: 1908]
3. SESVPDPQPIGEPP (REGION 1..14: note = peptide derived from viral capsid protein) [SEQ ID NO: 1899]
4. NYNKSVNVDFTVDT (REGION 1..14: note = peptide derived from viral capsid protein) [SEQ ID NO: 1903]
5. KIFNIQVKEVTTSN (REGION 1..14: note = peptide derived from viral capsid protein) [SEQ ID NO: 1896]

Reply:
12
03
09
19
20

Ask: Please look up its peptide number among the top 20 peptide hits of mAb Mac2-158: DEEEIRTTNPVATE (REGION 1..14: note = peptide derived from viral capsid protein) [SEQ ID NO: 1902]
Reply: 18

---

Test system: polyclonal antibody ab6982
procedure_text: Epitope mapping of polyclonal antibody ab6982 against cyclic peptides of Ad5 fiber and hexon (peptide array)
Type: binding, rabbits
assay_context: cyclic peptides of fiber protein (clusters 1-7)
What antibody binding signal ranking from the microarray experiment was measured for each of the following?
One number for each entry.

Study these solved cases before continuing.
187 (VLLNNSFLDPEYW) [compound 187]
088
ADPPTTFNQAKLAS [SEQ ID NO: 2009]
060

Give antibody binding signal ranking from the microarray experiment for each listed item.
1. 182 (LNNSFLDPEYWNF) [compound 182]
2. AGDNVDYSSVMLTS [SEQ ID NO: 2010]

Reply:
["033", "065"]

Give antibody binding signal ranking from the microarray experiment for each listed item.
1. SKTANDNNNSNFPW (REGION 1..14: note = peptide derived from viral capsid protein) [SEQ ID NO: 1995]
2. 181 (PEYWNFR) [compound 181]
3. FSAARINSFLTQYS [SEQ ID NO: 2032]
4. HSQSLDRLMNPLLD [SEQ ID NO: 2051]
5. NQTDRNAFYCLEYF [SEQ ID NO: 2036]
6. 191 (LNNSFLD) [compound 191]

Reply:
1. 035
2. 031
3. 059
4. 008
5. 072
6. 180

Give antibody binding signal ranking from the microarray experiment for each listed item.
1. 192 (NSFLDPEYWN) [compound 192]
2. 193 (SSYTFSY) [compound 193]

Reply:
1: 187; 2: 042

---

Test system: polyclonal antibody ab6982
procedure_text: Epitope mapping of polyclonal antibody ab6982 against cyclic peptides of Ad5 fiber and hexon (peptide array)
Format: binding, rabbits
assay_context: cyclic peptides of fiber protein (clusters 1-7)
Ends that are not written are not given here.
What antibody binding signal ranking from the microarray experiment was measured for each of the following?
One number for each entry.

194 (FATSSYTFSY) [compound 194]
043

Give antibody binding signal ranking from the microarray experiment for each listed item.
1. 176 (SMSFSWDWSGHNY) [compound 176]
2. DKFFPMSGVMIFGK (not fully specified) [SEQ ID NO: 2044]

Reply:
1: 176; 2: 147

---

Test system: polyclonal antibody ab6982
procedure_text: Epitope mapping of polyclonal antibody ab6982 against cyclic peptides of Ad5 fiber and hexon (peptide array)
Assay type: binding, rabbits
assay_context: cyclic peptides of fiber protein (clusters 1-7)
From the text: Polyclonal antibody ab6982 (Abcam) was generated by immunizing rabbits with purified AdV. It reacts with all capsid proteins of Ad5 including hexon, fiber and penton. It was shown that the antibody neutralizes Ad5 infection in a bioassay at 1000 adenovirus 5 particles/ml, a 50% inactivation of the adenovirus can be achieved at a 1/25,000 dilution of the antibody. […]
Ends that are not written are not given here.
result_type: antibody binding signal ranking from the microarray experiment
Numbers only.

YNLQEIVPGSVWME [SEQ ID NO: 2063]
143
QTGDADSVPDPQPL (not fully specified) [SEQ ID NO: 2008]
056
RDWQRLINNNWGLR [SEQ ID NO: 2038]
082
179 (FLDPEYWNFR) [compound 179]
017
DIYYQGPIWAKVPH [SEQ ID NO: 2030]
030

Turning now to a further record.
Ask: Please look up its antibody binding signal ranking from the microarray experiment: TVQVFTDSDYQLPY [SEQ ID NO: 2019]
Reply: 013

---

Tested on: polyclonal antibody ab6982
procedure_text: Epitope mapping of polyclonal antibody ab6982 against cyclic peptides of Ad5 fiber and hexon (peptide array)
Format: binding, rabbits
assay_context: cyclic peptides of fiber protein (clusters 1-7)
result_type: antibody binding signal ranking from the microarray experiment
Answers are plain numbers.

Study these solved cases before continuing.
KSTSVDFAVNTEGV [SEQ ID NO: 2025]
039
PVPADPPTTFNQSK (REGION 1..14: note = peptide derived from viral capsid protein) [SEQ ID NO: 2027]
047
SNYNKSVNVDFTVD (REGION 1..14: note = peptide derived from viral capsid protein) [SEQ ID NO: 1996]
040

Give antibody binding signal ranking from the microarray experiment for each listed item.
1. 196 (SYTFSYI) [compound 196]
2. KNTPVPADPPTTFN (REGION 1..14: note = peptide derived from viral capsid protein) [SEQ ID NO: 2011]

Reply:
["064", "076"]

Give antibody binding signal ranking from the microarray experiment for each listed item.
1. 198 (EIFATSSYTF) [compound 198]
2. 173 (SMSFSWD) [compound 173]
3. KKRILEPLGLVEEA [SEQ ID NO: 2023]
4. IEMRAAPGGNAVDA [SEQ ID NO: 2052]
5. ADPPTTFNQSKLNS [SEQ ID NO: 2024]
6. EEEIKTTNPVATES (REGION 1..14: note = peptide derived from viral capsid protein) [SEQ ID NO: 2014]
7. DIYYQGPIWAKIPH (REGION 1..14: note = peptide derived from viral capsid protein) [SEQ ID NO: 2040]

Reply:
["089", 144, "023", "014", "032", 123, 102]

Give antibody binding signal ranking from the microarray experiment for each listed item.
1. QSSNTAPTTRTVND (REGION 1..14: note = peptide derived from viral capsid protein) [SEQ ID NO: 1994]
2. GQTGESESVPDPQP [SEQ ID NO: 2059]
3. LSKTANDNNNSNFP (REGION 1..14: note = peptide derived from viral capsid protein) [SEQ ID NO: 1988]
4. PVPADPPTAFNKDK (REGION 1..14: note = peptide derived from viral capsid protein) [SEQ ID NO: 2018]
5. EGADGVGNASGNWH (REGION 1..14: note = peptide derived from viral capsid protein) [SEQ ID NO: 2046]

Reply:
1. 024
2. 095
3. 001
4. 012
5. 169
